Tested on: NCI-H2087
protocol: relative viability (nuclei count vs DMSO), 5 days (fraction); higher = more cells survive
setup-conditions: first compound 0.6325 µM
Item-by-item account of relative viability
test-readout: relative viability

# compound, recorded-value
rows = [
    ("Cc1csc(=NC2CCCCC2)n1/N=C/c1ccc(O)c(O)c1O [MIM1] + O=C(c1cc(Cc2n[nH]c(=O)c3ccccc23)ccc1F)N1CCN(C(=O)C2CC2)CC1 [Olaparib] (partner 8 µM)", 0.701),
    ("Cc1csc(=NC2CCCCC2)n1/N=C/c1ccc(O)c(O)c1O [MIM1] + CC1(C)CCC(c2ccc(Cl)cc2)=C(CN2CCN(c3ccc(C(=O)NS(=O)(=O)c4ccc(N[C@H](CCN5CCOCC5)CSc5ccccc5)c(S(=O)(=O)C(F)(F)F)c4)cc3)CC2)C1 [Navitoclax] (partner 0.5 µM)", 0.921),
    ("Cc1csc(=NC2CCCCC2)n1/N=C/c1ccc(O)c(O)c1O [MIM1] + CCNC(=O)c1noc(-c2cc(C(C)C)c(O)cc2O)c1-c1ccc(CN2CCOCC2)cc1 [Luminespib] (partner 0.01 µM)", 0.183),
    ("Cc1csc(=NC2CCCCC2)n1/N=C/c1ccc(O)c(O)c1O [MIM1] + Cc1cc(Nc2cc(N3CCN(C)CC3)nc(Sc3ccc(NC(=O)C4CC4)cc3)n2)n[nH]1 [Tozasertib] (partner 0.1 µM)", 0.284),
]
